Target: T1, monkey CD22 protein (ACROBiosystems, catalog number SI2-R52Ha) (monkey, UniProt F6W485 20-688)
T1 construct: commercial protein; also called monkey CD22-ECD; monkey CD22-ECD-His
T1 sequence: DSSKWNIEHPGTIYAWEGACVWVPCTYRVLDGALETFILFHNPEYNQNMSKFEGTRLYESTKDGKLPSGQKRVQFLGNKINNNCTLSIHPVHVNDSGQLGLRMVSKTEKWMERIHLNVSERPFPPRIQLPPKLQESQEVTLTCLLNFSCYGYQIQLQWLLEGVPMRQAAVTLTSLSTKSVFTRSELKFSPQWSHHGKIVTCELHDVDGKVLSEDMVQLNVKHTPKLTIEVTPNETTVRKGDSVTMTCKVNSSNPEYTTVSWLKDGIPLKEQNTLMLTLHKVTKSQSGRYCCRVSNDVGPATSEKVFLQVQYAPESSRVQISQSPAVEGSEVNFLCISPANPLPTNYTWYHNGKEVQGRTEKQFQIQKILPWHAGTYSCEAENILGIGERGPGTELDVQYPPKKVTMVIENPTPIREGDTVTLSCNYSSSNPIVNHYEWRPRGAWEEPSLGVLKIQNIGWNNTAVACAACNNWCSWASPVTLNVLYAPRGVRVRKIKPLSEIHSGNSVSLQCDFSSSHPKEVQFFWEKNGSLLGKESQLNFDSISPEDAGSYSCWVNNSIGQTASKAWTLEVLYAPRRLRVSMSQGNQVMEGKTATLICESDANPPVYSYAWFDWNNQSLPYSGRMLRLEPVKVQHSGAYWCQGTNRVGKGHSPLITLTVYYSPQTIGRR
Assay: ELISA, coated monkey CD22 protein, antibody 0.0001 nM
QUANTITY NAME: OD450

See these solved cases before continuing.
binder="F1.280.1 (antibody, human IgG1, kappa, V domains shown, human-murine chimeric IgG1 kappa) VH: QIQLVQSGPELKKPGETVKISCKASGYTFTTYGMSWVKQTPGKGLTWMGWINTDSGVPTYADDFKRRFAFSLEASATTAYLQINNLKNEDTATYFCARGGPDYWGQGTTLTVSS VL: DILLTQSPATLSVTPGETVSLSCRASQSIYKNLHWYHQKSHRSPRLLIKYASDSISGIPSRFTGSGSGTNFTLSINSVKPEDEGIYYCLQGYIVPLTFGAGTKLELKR" quantity_name=OD450 measured="0.06 OD450"
binder="F1.224.1 (antibody, human IgG1, kappa, V domains shown, human-murine chimeric IgG1 kappa; VL name legible) VH: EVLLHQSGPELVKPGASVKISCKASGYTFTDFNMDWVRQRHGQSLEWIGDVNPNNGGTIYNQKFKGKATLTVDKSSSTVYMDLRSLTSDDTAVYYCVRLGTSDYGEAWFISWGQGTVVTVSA VL: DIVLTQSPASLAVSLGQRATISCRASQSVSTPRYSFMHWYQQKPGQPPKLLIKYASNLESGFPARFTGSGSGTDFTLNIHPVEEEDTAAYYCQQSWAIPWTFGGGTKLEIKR" quantity_name=OD450 measured="0.15 OD450"
binder="F1.60.9 (antibody, human IgG1, kappa, V domains shown, human-murine chimeric IgG1 kappa) VH: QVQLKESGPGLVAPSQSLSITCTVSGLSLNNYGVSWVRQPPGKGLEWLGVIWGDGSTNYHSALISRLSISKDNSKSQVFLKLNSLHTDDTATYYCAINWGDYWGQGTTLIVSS VL: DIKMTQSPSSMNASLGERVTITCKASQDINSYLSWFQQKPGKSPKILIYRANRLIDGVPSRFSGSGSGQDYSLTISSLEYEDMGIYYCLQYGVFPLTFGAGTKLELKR" quantity_name=OD450 measured="0.06 OD450"
binder="F1.216.2 (antibody, human IgG1, kappa, V domains shown, human-murine chimeric IgG1 kappa) VH: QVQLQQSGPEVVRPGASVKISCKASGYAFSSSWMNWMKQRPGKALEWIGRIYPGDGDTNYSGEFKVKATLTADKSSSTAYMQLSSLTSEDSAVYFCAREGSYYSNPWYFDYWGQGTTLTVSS VL: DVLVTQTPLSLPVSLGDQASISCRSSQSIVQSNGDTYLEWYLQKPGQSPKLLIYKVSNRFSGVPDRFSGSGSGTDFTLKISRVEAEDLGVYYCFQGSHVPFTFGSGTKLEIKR" quantity_name=OD450 measured="0.21 OD450"

// moving on: another record for OD450
binder F2.99.1 (antibody, human IgG1, lambda, V domains shown, human-murine chimeric IgG1 lambda; VL name legible) VH: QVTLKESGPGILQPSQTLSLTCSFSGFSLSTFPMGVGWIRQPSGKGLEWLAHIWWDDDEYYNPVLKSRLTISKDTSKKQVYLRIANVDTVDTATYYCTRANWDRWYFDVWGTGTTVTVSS VL: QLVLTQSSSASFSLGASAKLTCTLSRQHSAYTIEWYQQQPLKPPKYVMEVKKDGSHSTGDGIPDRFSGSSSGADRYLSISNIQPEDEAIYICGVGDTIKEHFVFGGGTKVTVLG , OD450 observed: 0.05 OD450
